# procedure_details: Solubility of acetaminophen at 20° C.
# Type: physicochemical
# measurement_context: water
metric_name: solubility

// query # solubility lookup, item CC(=O)Nc1ccc(O)cc1
// result ~13 mg/mL
